MEASUREMENT_NOTES: chemical genetic growth profiling, strain panel (AID 1159580);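 further: tested at 20 µM; growth read once vehicle control cultures reached saturation at 30 °C; lower values mean less growth of the strain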
ASSAY_CONTEXT: S. cerevisiae deletion strains, growth OD, locus YNL322C, strain KRE1
About 2,000 (36%) of roughly 5,500 compounds were called active. Inconclusive results (about 18%) are left out. No stated cut-off is given here; in the data, active means normalized growth mostly below about 0.91 (no sharp cut-off); inconclusive means no clear call, values can overlap the other calls; inactive means mostly above about 0.92. The list shows a part of the results.
Log the outcome using a class from true (active), false (inactive)

IN: Would you mind telling me which call this test gave "O=c1cc(-c2ccccc2)oc2cc(O)cc(O)c12" ?
OUT: false

IN: Would you mind telling me which call this test gave "CSC(=NC(=O)c1c(Cl)cccc1Cl)SC" ?
OUT: true

IN: Would you mind telling me which call this test gave "CC(=O)Nc1nnc(S(N)(=O)=O)s1" ?
OUT: true

IN: Would you mind telling me which call this test gave "O=c1cc(-c2ccccc2)oc2cc(O)c(O)c(O)c12" ?
OUT: true

IN: Would you mind telling me which call this test gave "CN(C)N=Nc1nc[nH]c1C(N)=O" ?
OUT: false

IN: Would you mind telling me which call this test gave O=C(O)CC(CC(=O)Nc1ccc(I)cc1F)c1ccc(C(F)(F)F)cc1 (centres undefined) ?
OUT: false

IN: Would you mind telling me which call this test gave "CN1CCN(c2ccc3ccccc3n2)CC1" ?
OUT: false

IN: Would you mind telling me which call this test gave "O=c1ccn([C@@H]2O[C@H](COP(=O)(O)OP(=O)(O)O)[C@@H](O)[C@H]2O)c(=O)[nH]1" ?
OUT: false

IN: Would you mind telling me which call this test gave "CCCN(CCC)CCc1c[nH]c2ccc(C(N)=O)cc12" ?
OUT: false

IN: Would you mind telling me which call this test gave "COc1ccc(CNc2ccccc2-c2nc3ccccc3[nH]2)cc1" ?
OUT: false

IN: Would you mind telling me which call this test gave "CN1CCN(C2=Nc3ccccc3Oc3ccc(Cl)cc32)CC1" ?
OUT: false

IN: Would you mind telling me which call this test gave CN(C)CCOC(=O)C(c1ccccc1)C1(O)CCCC1 (centres undefined) ?
OUT: false

IN: Would you mind telling me which call this test gave "N/C(=N/O)c1csc(-c2ccc(F)cc2F)n1" ?
OUT: false

IN: Would you mind telling me which call this test gave "O=C(O)CCCOc1ccc(Cl)cc1Cl" ?
OUT: false

IN: Would you mind telling me which call this test gave "O=C(O)Cc1ccccc1I" ?
OUT: false

IN: Would you mind telling me which call this test gave "CC(=O)Nc1ccc(S(=O)(=O)NC2Cc3ccccc3C2)cc1" ?
OUT: false

IN: Would you mind telling me which call this test gave "N#C/C(=C\c1cccc(O)c1)C(=O)O" ?
OUT: false

IN: Would you mind telling me which call this test gave "COc1cc2c(cc1-c1cc3cc4ccoc4cc3oc1=O)OCO2" ?
OUT: true

IN: Would you mind telling me which call this test gave COc1cc(S(C)=O)ccc1-c1nc2ncccc2[nH]1 (centres undefined) ?
OUT: false

IN: Would you mind telling me which call this test gave CC(CN(C)C)CN1c2ccccc2CCc2ccccc21 (centres undefined) ?
OUT: false

IN: Would you mind telling me which call this test gave "NS(=O)(=O)c1cccc2c1c([N+](=O)[O-])cc1nc(O)c(O)nc12" ?
OUT: false

IN: Would you mind telling me which call this test gave "CCC(=O)Nc1ccc(Cl)c(Cl)c1" ?
OUT: false

IN: Would you mind telling me which call this test gave "CO[C@]12C[C@@H](COC(=O)c3cncc(Br)c3)CN(C)[C@@H]1Cc1cn(C)c3cccc2c13" ?
OUT: false

IN: Would you mind telling me which call this test gave "O=C(NCc1nc(-c2ccc(C(F)(F)F)cc2)no1)Nc1ccc(F)cc1F" ?
OUT: false

IN: Would you mind telling me which call this test gave "O=C(O)Cc1cc(I)c(Oc2cc(I)c(O)c(I)c2)c(I)c1" ?
OUT: false

IN: Would you mind telling me which call this test gave "O=c1[nH]cnc2[nH]ncc12" ?
OUT: false

IN: Would you mind telling me which call this test gave "O=C1NC(c2cccc([N+](=O)[O-])c2)=CCN1c1ccccc1O" ?
OUT: false

IN: Would you mind telling me which call this test gave CCN(CC)C(C)CN1c2ccccc2Sc2ccccc21 (centres undefined) ?
OUT: false

IN: Would you mind telling me which call this test gave "N[C@@H](Cc1cc(I)c(Oc2cc(I)c(O)c(I)c2)c(I)c1)C(=O)O" ?
OUT: false

IN: Would you mind telling me which call this test gave "CCOC(=O)[C@H](CCc1ccccc1)N[C@@H](C)C(=O)N1Cc2ccccc2C[C@H]1C(=O)O" ?
OUT: false

IN: Would you mind telling me which call this test gave OC1(c2ccc(Cl)cc2)CSc2nc3cc(C(F)(F)F)ccc3n21 (centres undefined) ?
OUT: false

IN: Would you mind telling me which call this test gave "C[C@H](N)[C@H](O)c1ccccc1" ?
OUT: false

IN: Would you mind telling me which call this test gave "O=[N+]([O-])c1cccc(-c2csc(Nc3ccccc3Cl)n2)c1" ?
OUT: false

IN: Would you mind telling me which call this test gave NC(CCCP(=O)(O)O)C(=O)O (centres undefined) ?
OUT: false

IN: Would you mind telling me which call this test gave "Cc1cccc(Nc2ccncc2S(=O)(=O)NC(=O)NC(C)C)c1" ?
OUT: false

IN: Would you mind telling me which call this test gave "Cc1cc(O)c(C)c2c1C(=O)Oc1c(C)c(O)c(C(=O)O)c(C)c1O2" ?
OUT: false

IN: Would you mind telling me which call this test gave "COc1cc2c(cc1/C=C/C(=O)c1cc(OC)c(OC)cc1OC)OCO2" ?
OUT: false

IN: Would you mind telling me which call this test gave "N[C@H](Cc1cc(I)c(Oc2ccc(O)c(I)c2)c(I)c1)C(=O)O" ?
OUT: false

IN: Would you mind telling me which call this test gave "N#Cc1cccc(Cn2c(=O)oc3ccccc32)c1" ?
OUT: false
